biological target: human GABA A receptor α5βγ2 (Homo sapiens, UniProt P18507+P31644); construct: expressed in transfected cells; host or cells: HEK293; assay: [3H]flumazenil competition binding, HEK293 cell membranes
So basically: is Ki under 9 nM? Then yes. Not under? Then no.

Solved entries:
> print(dat)
                              smiles.record  class.assignment
1  CCC(F)(F)c1ncn2c1Cn1ncnc1-c1cc(Br)ccc1-2               yes
2   CCC(F)(F)c1ncn2c1Cn1ncnc1-c1cc(F)ccc1-2               yes
3         FCc1ncn2c1Cn1ncnc1-c1cc(Br)ccc1-2               yes
4   C#Cc1ccc2c(c1)-c1ncnn1Cc1c(C(F)F)ncn1-2                no
5          FC(F)c1ncn2c1Cn1ncnc1-c1ccccc1-2               yes

In the record for FCc1ncn2c1Cn1ncnc1-c1cc(Cl)ccc1-2 , is Ki less than 9 nM?
no

Here is the next compound: FC(F)c1ncn2c1Cn1ncnc1-c1cc(Cc3ccccc3)ccc1-2
no

Note, next up: FC(F)c1ncn2c1Cn1ncnc1-c1cc(C3CC3)ccc1-2
no
